TARGET OR TEST SYSTEM: Lysophosphatidic acid receptor 1 (Homo sapiens, UniProt Q92633)
Sequence (Q92633 whole entry): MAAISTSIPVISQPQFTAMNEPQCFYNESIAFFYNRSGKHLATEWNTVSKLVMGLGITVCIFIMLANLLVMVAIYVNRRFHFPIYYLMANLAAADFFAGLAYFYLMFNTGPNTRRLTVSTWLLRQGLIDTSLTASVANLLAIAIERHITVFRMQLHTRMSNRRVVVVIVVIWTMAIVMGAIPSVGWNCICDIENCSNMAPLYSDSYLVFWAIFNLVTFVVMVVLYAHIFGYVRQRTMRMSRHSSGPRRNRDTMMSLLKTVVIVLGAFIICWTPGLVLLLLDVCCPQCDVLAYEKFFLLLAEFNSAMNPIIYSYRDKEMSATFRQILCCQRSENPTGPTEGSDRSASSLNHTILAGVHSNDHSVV
ASSAY INFO: LPAR1 Calcium Flux Assays: A cDNA encoding the human LPAR1 receptor is synthesized and cloned into pDNA3 expression plasmid. The plasmid is transfected in U937 cells using Lipofectamine 2000 (Invitrogen Corp., USA). Clones stably expressing human LPAR1 are selected using […] and identified as cells that show Ca-influx in response to LPA.U937 cells overexpressing human LPAR1 are seeded at 100,000 cells per well in a 96-well fibronectin (10 ug/ml) coated plate in 60 μl of assay buffer (HBSS containing 20 mM HEPES and 0.2% BSA) and then incubated for 60 minutes. Then 50 μl of a calcium indicator dye (Fluo-4 NW, Molecular Probes) are added to each well and incubation continued for 30 minutes at 37° C. and then 30 minutes at room temperature. 50 μl of test compounds in 4% DMSO are added to the cells and incubation continued at room temperature for 40 minutes. Cells are the stimulated by the addition of 50 μl of 128 nM LPA and intracellular calcium is measured using the FLIPR TETRA (Molecular Devices). IC50 values are determined using “Genedata Screener” analysis tool.
OBSERVED PROPERTY: IC50 (nM)
One number for each entry, in nM.

Provide value of IC50 for this record tested with Lysophosphatidic acid receptor 1 (Homo sapiens, UniProt Q92633): "Cn1ncc(-c2ccc(-c3ccc(C4(C(=O)O)CC4)c(C(F)(F)F)c3)cn2)c1Nc1cncc(OC2CC2)n1"
22
